System: MCF-10HRas
test details: Effect of PDTC on cell proliferation (IC50)
Type: cell-based
assay context: Breast carcinoma cell, Breast carcinoma cells, read-out: IC50 required to inhibit cellular proliferation or induce apoptosis
value kind: IC50 (µM)
The reply should be a number in µM, with the unit left off.

Query: IC50; subject: S=C(S)N1CCCC1 [PDTC, pyrrolidinedithiocarbamate]
5

---

Tested on: HCT 116 cells
test details: Soft-agar colony formation (anchorage-independent growth)
assay context: read-out: approximate IC50 in soft agar; HCT 116 cells, soft agar, 10 days
value kind: IC50

What does the data say about its IC50? Entry: Cc1c(C)c2c(c(C)c1O)CCC(C)(C(=O)O)O2 (stereo not shown)
~3000 µM
